# STUDY SYSTEM: M1 muscarinic receptor (Homo sapiens, UniProt P11229)
# Construct: expressed in transfected cells; host or cells: CHO (M1-CHO)
# Sequence (P11229 whole entry): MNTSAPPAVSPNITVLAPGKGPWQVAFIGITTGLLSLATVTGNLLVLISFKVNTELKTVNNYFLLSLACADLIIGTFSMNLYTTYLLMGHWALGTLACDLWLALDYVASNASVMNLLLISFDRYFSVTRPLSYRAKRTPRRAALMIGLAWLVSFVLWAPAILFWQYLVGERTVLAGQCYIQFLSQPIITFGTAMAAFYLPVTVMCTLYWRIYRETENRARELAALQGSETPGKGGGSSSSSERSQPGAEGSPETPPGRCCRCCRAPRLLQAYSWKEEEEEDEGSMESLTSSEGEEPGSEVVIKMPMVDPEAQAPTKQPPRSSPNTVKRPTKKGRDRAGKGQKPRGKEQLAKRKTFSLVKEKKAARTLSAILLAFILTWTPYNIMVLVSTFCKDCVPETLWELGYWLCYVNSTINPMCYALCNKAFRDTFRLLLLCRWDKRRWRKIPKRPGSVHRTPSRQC
# METHOD NOTES: Functional mobilization of intracellular calcium (FLIPR), M1-CHO cells
# Type: cell-based
# APPLIED CONDITIONS: 100% efficacy = maximum response obtained with the Carbachol control
Would you kindly list Emax for each of these compounds?

Some compounds with recorded Emax:
* COc1ccc(Cl)cc1C1(F)CCN(C2CCCCCC2)CC1 | 25 to 100%
* COc1ccc(Cl)cc1C1(F)CCN(C2CC3CCC(C3)C2)CC1 (centres unmarked) | 25 to 100%
* COc1ccc(Cl)cc1C1(F)CCN(CC2CCCCC2)CC1 | < 25%
* CCOC(=O)N1CCC(CN2CCC(c3cc(-c4ccc(C(=O)NC)c(Cl)c4)ccc3OC)CC2)CC1 | 25 to 100%
* CC(=O)COc1ccccc1C1CCN(C2CC3CC[C@H]2C3)CC1 (stereo in doubt) | 25 to 100%
* CCOC(=O)N1C2CCC1CC(N1CCC(c3cc(-c4ccc(C(=O)NC)c(Cl)c4)ccc3OC)CC1)C2 (centres unmarked) | < 25%

Please go through the list and note Emax for each compound.
1. COc1ccc(F)cc1C1CCN(C2CCCCCC2)CC1
2. Fc1cccc(C2CCN(C3C[C@H]4CC[C@H]3C4)CC2)c1F (some centres unmarked)

Result:
1: 25 to 100%; 2: 25 to 100%
